# assayed target: human CCR8 (human, UniProt P51685 1-355)
# method description: cell-based or functional assay
Listed next: entries and their corresponding hCCL1 (100 nM) residual response in %, Protocol #2, mAb 10 µg/mL (66.7 nM).
Give the number; % is assumed, so skip it.

# binder, reported result
records = [
    ("anti-CCR8 mAb 2-11 (antibody, V domains shown) VH: EVQLQQSGPELVKPGASVKISCKASVYSFTGSYMHWVKQSHVKSLEWIGRINPYNGATSYNQNFKDKASLTVDKSSSTAYMELHSLTSEDSAVYYCATTLLRLLDYWGQGTTLTVSS VL: DIVMTQAAFSNPVTLGTSASISCRSSKSLLHSNGITYLYWYLQKPGQSPQLLIYQMSNLASGVPDRFSSSGSGTDFTLRISRVEAEDVGVYYCAQNLELPWTFGGGTKLEIK", 84),
]

Let us examine a further case.
Identify measured hCCL1 (100 nM) residual response in %, Protocol #2, mAb 10 µg/mL (66.7 nM) associated with anti-CCR8 mAb 2-9 (antibody, V domains shown) VH: QVQLQQPGSELVRPGASVKLSCKASGYTFTSYWMHWVKQRPGQGLEWIGNIWPGSASTNYDEKFKNKATLTVDTSSSTAYMQLSSLTSEDSAVYYCIRGGKGAMDYWSQGTSVTVSS VL: DVVMTQIPLSLPVSLGDQASISCRSSQSLENSYGNTYLNWYLQKPGQSPQLLIYRVSNRFSGVLDRFSGSGSGTDFTLKISRVEAEDLGVYFCLQVTHVPPTFGAGTKLELK
56
